Assay: Cytotoxicity against African green monkey Vero-B cells infected with Dengue virus serotype 2 assessed as inhibition of cell growth after 7 days by methylene blue staining based visual analysis
Settings: chlorocebus aethiops, time 7 day
RECORDED METRIC: CC50 at 168 h (µM)

> print(dat)
                           structure.smiles  numeric.readout
1  O=C(NCc1ccccc1-c1ccsc1)c1ccccc1C(=O)Nc1ccc(F)cc1               50

----------
Assay: Selectivity index, ratio of CC50 for African green monkey Vero-B cells infected with Dengue virus serotype 2 assessed as inhibition of cell growth to EC50 for Dengue Virus serotype 2 infected in Vero-B cells assessed as inhibition of virus-induced cytopathogenic effect incubated for 7 days by methylene blue staining based visual analysis
Assay type: toxicity
Conditions: read-out: Ratio CC50/EC50
Readings of selectivity ratio at 168 h for the listed compounds
RECORDED METRIC: selectivity ratio at 168 h

> print(dat)
                           structure.smiles  result
1  Cc1ccc(NC(=O)c2nccnc2C(=O)Nc2ccc(C)cc2-c2ccsc2)cc1    > 29
2  O=C(NCc1ccccc1-c1ccsc1)c1ccccc1C(=O)Nc1ccc(F)cc1      17
3  Cc1ccc(NC(=O)c2nccnc2C(=O)Nc2ccc(C)cc2-c2cccs2)cc1   > 235
4  Cc1ccc(NC(=O)c2nccnc2C(=O)Nc2ccc(C)cc2-c2cc(C)n[nH]2)cc1   > 235
5  Cc1ccc(NC(=O)c2ccccc2C(=O)Nc2ccc(C)cc2-c2ccsc2)cc1      41
6  Cc1ccc(NC(=O)c2ccccc2C(=O)Nc2ccc(F)cc2)c(-c2cc(C)n[nH]2)c1   > 235

----------
Experiment: Selectivity index, ratio of CC50 for African green monkey Vero-B cells infected with Yellow fever virus assessed as inhibition of cell growth to EC50 for Yellow fever virus infected in Vero-B cells assessed as inhibition of virus-induced cytopathogenic effect incubated for 7 days by methylene blue staining based visual analysis
Assay type: toxicity
Conditions: read-out: Ratio CC50/EC50
# maps each entry to its selectivity ratio at 168 h
RECORDED METRIC: selectivity ratio at 168 h

> print(dat)
                           structure.smiles  modifier.sign  numeric.readout
1  O=C(NCc1ccccc1-c1ccsc1)c1ccccc1C(=O)Nc1ccc(F)cc1              =               53
2  Cc1ccc(NC(=O)c2nccnc2C(=O)Nc2ccc(F)cc2)c(-c2cccs2)c1              =                5
3  Cc1ccc(NC(=O)c2nccnc2C(=O)Nc2ccccc2-c2cc(C)n[nH]2)cc1              >               34

----------
Test system: dengue virus type 2
Assay: Antiviral activity against Dengue virus serotype 2 infected in Vero-B cells assessed as inhibition of virus-induced cytopathogenic effect after 7 days by methylene blue staining based visual analysis
Type: functional, organism-based
Conditions: 168 h
RECORDED METRIC: EC50 (nM)

> print(dat)
                           structure.smiles          test.system  numeric.readout
1  O=C(NCc1ccccc1-c1ccsc1)c1ccccc1C(=O)Nc1ccc(F)cc1  dengue virus type 2             3000
